# Measurement target: human 5-HT3 receptor (Homo sapiens)
# Construct: purchased BIOLINKS K.K; host or cells: HEK-293 cells (membrane preparation)
# Sequence (P46098 24-478): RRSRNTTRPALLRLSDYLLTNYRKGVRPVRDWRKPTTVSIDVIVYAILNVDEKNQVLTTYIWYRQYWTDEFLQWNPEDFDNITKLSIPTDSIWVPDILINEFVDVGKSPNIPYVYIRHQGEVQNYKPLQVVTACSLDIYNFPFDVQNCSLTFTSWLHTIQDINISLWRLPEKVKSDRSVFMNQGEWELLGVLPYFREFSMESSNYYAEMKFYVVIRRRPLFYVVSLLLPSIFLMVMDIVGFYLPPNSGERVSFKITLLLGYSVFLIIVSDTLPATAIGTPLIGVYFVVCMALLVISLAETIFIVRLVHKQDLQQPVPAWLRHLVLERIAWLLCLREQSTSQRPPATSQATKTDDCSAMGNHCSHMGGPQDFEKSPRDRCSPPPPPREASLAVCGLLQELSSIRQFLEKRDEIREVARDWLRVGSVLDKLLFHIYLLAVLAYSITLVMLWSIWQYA
# Method: Measurement of affinity to human 5-HT3 receptor (in vitro), [3H]BRL-43694 binding
# Setup conditions: test compound 100 nmols/L; [3H]BRL-43694 0.5 nmols/L; HEK-293 cell membrane expressing human 5-HT3 receptor; read-out: Percent Inhibition (%) on Each Receptor's Binding at 10^−7M, 5-HT3
Reported metric: inhibition at 0.1 µM

Recorded results for 3 compounds are shown here.
compound="COc1ccc2ccnc(N3CCN4CCCCC4C3)c2c1 (centres unmarked) [Production Example 81]" endpoint_result=74.4%
compound="Nn1c(CCCCN2CCN(c3ccc4ccccc4n3)CC2)nc2ccccc2c1=O [Example 4-3]" endpoint_result=83.6%
compound="Oc1ccc2ccnc(N3CCN4CCC[C@H]4C3)c2c1 [Production Example 85]" endpoint_result=98.9%

Fill in inhibition at 0.1 µM for record Cc1cc(N2CCN(CCCNc3nc4c(c(=O)[nH]3)CCCC4)CC2)nc2ccccc12 [Example 5-3]
74.5%

Kindly indicate its recorded inhibition at 0.1 µM. Item: CN1CCN(c2nccc3ccc(F)cc23)CC1 [Production Example 52]
97%

----------
# Measurement target: human 5-HT3 receptor (Homo sapiens)
# Construct: purchased BIOLINKS K.K; host or cells: HEK-293 cells (membrane preparation)
# Method: Measurement of affinity to human 5-HT3 receptor (in vitro), [3H]BRL-43694 binding
# Setup conditions: test compound 100 nmols/L; [3H]BRL-43694 0.5 nmols/L; HEK-293 cell membrane expressing human 5-HT3 receptor; read-out: Percent Inhibition (%) on Each Receptor's Binding at 10^−7M, 5-HT3
Where a name gives a salt, the structure may show the parent alone.
Attribute: inhibition at 0.1 µM
Field format: number, assumed %, no unit text.

Some solved cases for reference:
compound=c1cc2ccoc2c(N2CCN3CCC[C@H]3C2)n1 scale_unit=% endpoint_result=98.9
compound="CCC1CCc2nc(CCCCN3CCN(c4ccc5ccccc5n4)CC3)n(N)c(=O)c2C1 (centres unmarked)" scale_unit=% endpoint_result=88.7
compound=COc1ccc(-n2c(CCCCN3CCN(c4ccc5ccccc5n4)CC3)nc3ccccc3c2=O)cc1 scale_unit=% endpoint_result=1.9
compound=Clc1ccc2ccnc(N3CCN4CCC[C@@H]4C3)c2c1 scale_unit=% endpoint_result=94.4
compound=CC(C)n1c(CCCCN2CCN(c3ccc4ccccc4n3)CC2)nc2ccccc2c1=O scale_unit=% endpoint_result=35

Look up human 5-HT3 receptor (Homo sapiens) data: inhibition at 0.1 µM of Clc1ccc2c(N3CCNCC3)nccc2c1 , then report it.
96.5

Quote inhibition at 0.1 µM with test system human 5-HT3 receptor (Homo sapiens) for CN1CCN(c2nc(Cl)cc3ccccc23)CC1 [Production Example 16, dihydrochloride]
99.2

Please respond with reported inhibition at 0.1 µM (system human 5-HT3 receptor (Homo sapiens)) for CCCc1cc(=O)[nH]c(SCCCN2CCN(c3ccc4ccccc4n3)CC2)n1 .
51.9

Provide inhibition at 0.1 µM, system human 5-HT3 receptor (Homo sapiens), entry Cn1c(CCCCN2CCN(c3ccc4ccccc4n3)CC2)nc2ccccc2c1=O
92.9
